Value source: patent US11596639B2

target: Mcl-1 (Homo sapiens (Human), UniProt Q07820); test: Fluorescence polarization anisotropy (FPA) competition assay, FITC-Bak or FITC-Bim BH3 peptide; assay type: binding; conditions: read-out: Ki for Inhibition of Mcl-1 by FPA assay
Sequence (Q07820 172-327): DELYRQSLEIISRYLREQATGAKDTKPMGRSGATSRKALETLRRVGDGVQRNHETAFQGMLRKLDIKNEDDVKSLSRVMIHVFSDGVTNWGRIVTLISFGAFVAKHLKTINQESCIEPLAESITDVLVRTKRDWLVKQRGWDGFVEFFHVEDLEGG
PROPERTY MEASURED: Ki

IN: Consider the compound COCCn1cc(N2C[C@@H](C)n3c(c(CCCOc4cc(C)c(Cl)c(C)c4)c4ccc(Cl)c(-c5c(C)nn(C)c5C)c43)C2=O)c2cc(C(=O)O)ccc21 [Example 268] . State its measured Ki.
OUT: < 1 nM

IN: Consider the compound Cc1cc(OCCCc2c3n(c4c(-c5c(C)ncnc5C)c(Cl)ccc24)[C@H](C)CN(c2cccc4c2cc(C(=O)O)n4C)C3=O)cc(C)c1Cl [Example 210] . State its measured Ki.
OUT: 1.3 nM

IN: Consider the compound Cc1cc(OCCCc2c3n(c4c(-c5c(C)nn(C)c5C)c(Cl)ccc24)[C@H](C)CN(c2cccc4c(C(=O)O)n(C)nc24)C3=O)cc(C)c1Cl [Example 54] . State its measured Ki.
OUT: < 1 nM

* * *

Assignment: determine reported GI50 for the given compounds.
test system: H929 human cancer cell lines; experiment: Cellular viability / proliferation (Cell TiterGlo, 72 h); format: cell-based; details: Homo sapiens, NCI-H929, 72 h, read-out: GI50 on cellular proliferation of H929 human cancer cell lines, H929 cells, 72 h, Cell TiterGlo, 10% FBS

IN: Consider the compound Cc1noc(-c2ccc3c(c2)c(N2C[C@@H](C)n4c(c(CCCOc5cc(C)c(Cl)c(C)c5)c5ccc(Cl)c(-c6c(C)ncnc6C)c54)C2=O)cn3C)n1 . State its measured GI50.
OUT: 860 nM

IN: Consider the compound Cc1nc(-c2ccc3c(c2)c(N2C[C@@H](C)n4c(c(CCCOc5cc(C)c(Cl)c(C)c5)c5ccc(Cl)c(-c6c(C)nn(C)c6C)c54)C2=O)cn3C)no1 . State its measured GI50.
OUT: 970 nM

IN: Consider the compound Cc1cc(OCCCc2c3n(c4c(-c5c(C)nn(C)c5C)c(Cl)ccc24)[C@H](C)CN(c2cn(CC(=O)N(C)C)c4ccc(-c5ncn(Cc6ccccn6)n5)cc24)C3=O)cc(C)c1Cl . State its measured GI50.
OUT: 600 nM

IN: Consider the compound Cc1cc(OCCCc2c3n(c4c(-c5c(C)n[nH]c5C)c(Cl)ccc24)CCCN(c2cc(C(=O)O)cc4c2ccn4C)C3=O)cc(C)c1Cl . State its measured GI50.
OUT: 4700 nM

IN: Consider the compound Cc1cc(OCCCc2c3n(c4c(-c5c(C)nn(C)c5C)c(Cl)ccc24)[C@H](C)CN(c2cn(C)c4ccc(-c5nnn(C)n5)cc24)C3=O)cc(C)c1Cl . State its measured GI50.
OUT: 300 nM

* * *

Assignment: determine reported pKi for the given compounds.
target: Mcl-1 (Homo sapiens (Human), UniProt Q07820); assay: Fluorescence polarization anisotropy (FPA) competition assay, FITC-Bak or FITC-Bim BH3 peptide; format: binding; conditions: read-out: Ki for Inhibition of Mcl-1 by FPA assay
Notebook: values listed as pKi are -log10 of the concentration (mol/L).

IN: Consider the compound Cc1cc(OCCCc2c3n(c4c(-c5c(C)nn(C)c5C)c(Cl)ccc24)[C@H](C)CN(c2cc(C(=O)O)cc4c2cc(C(F)(F)F)n4C)C3=O)cc(C)c1Cl . State its measured pKi.
OUT: 8.51

IN: Consider the compound Cc1cc(OCCCc2c3n(c4c(-c5c(C)nn(C)c5C)c(Cl)ccc24)[C@H](C)CN(c2ccnc4ccc(-c5nnn(C)n5)cc24)C3=O)cc(C)c1Cl . State its measured pKi.
OUT: 8.74

IN: Consider the compound Cc1cc(OCCCc2c3n(c4c(-c5c(C)nn(C)c5C)c(Cl)ccc24)CCCN(Cc2cc(C(=O)O)cc(N4CCN(S(=O)(=O)C5CC5)CC4)n2)C3=O)cc(C)c1Cl . State its measured pKi.
OUT: 7.72

IN: Consider the compound COC(=O)c1ccc2c(c1)c(N1C[C@@H](C)n3c(c(CCCOc4cc(C)c(Cl)c(C)c4)c4ccc(Cl)c(-c5c(C)nn(C)c5C)c43)C1=O)cn2C (single isomer, unassigned) [Example 204] . State its measured pKi.
OUT: 8.96

IN: Consider the compound Cc1cc(OCCCc2c3n(c4c(-c5c(C)nn(C)c5C)c(Cl)ccc24)[C@H](C)CN(c2cn(C)c4ccc(C(=O)N(C)Cc5cccnc5)cc24)C3=O)cc(C)c1Cl . State its measured pKi.
OUT: 8.08
